Here, each record is paired with measured mortality at 4 mg/m2 data.
# Tested on: Aedes aegypti strain MONHEIM
# protocol: Aedes aegypti test (AEDSAE surface treatment & contact assay)
# Format: in vivo
# experimental_context: surface concentration 4 mg/m^2, 30 minutes exposure, 24 hours after contact, read-out: efficacy (mortality)

Known results for molecules:
molecule	mortality at 4 mg/m2
CC(NC(=O)c1cc(Cl)nc(C(F)(F)F)c1)c1nc(Cl)nn1-c1ncccn1 (stereo not drawn)	80 to 100%
CC(NC(=O)c1cc(Cl)cc(OC(F)(F)F)c1)c1nc(Cl)nn1-c1ncccn1 (racemic)	80 to 100%

Request: What value of mortality at 4 mg/m2 has been reported for the following molecule? CC(NC(=O)c1cc(Cl)cc(C(F)(F)F)c1)c1nc(Cl)nn1-c1ncccn1 (stereo not drawn)
Response: 80 to 100%

Request: Any idea what mortality at 4 mg/m2 was measured for CC(NC(=O)c1cc(C(F)(F)F)cc(C(F)(F)F)c1)c1nc(I)nn1-c1ncccn1 (stereo not drawn) ?
Response: 80 to 100%

Request: Reported mortality at 4 mg/m2 for CC(NC(=O)c1cncc(C(F)(F)F)c1)c1nc(Cl)nn1-c1ncccn1 (stereo not drawn) : what is it?
Response: 80 to 100%

Request: Which mortality at 4 mg/m2 value is on record for CC(NC(=O)c1cc(C(F)(F)F)cc(C(F)(F)F)c1)c1nc(Cl)nn1-c1ncccn1 (stereo not drawn) ?
Response: 80 to 100%
